Could you please report measured self-cleavage for the items listed next?
B1: HDV Ribozyme (parent)
chain: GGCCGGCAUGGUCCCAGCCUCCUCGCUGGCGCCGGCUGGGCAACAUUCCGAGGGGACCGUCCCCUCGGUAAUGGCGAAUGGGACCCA

Variants of: B1
protocol-description: self-cleavage, relative activity (ratio to wild type); higher = more cleavage; co-transcriptional
Answers are plain numbers.

Here's what some known entries look like.
[[record]]
sequence_input = "GGCCGGCAUGGUCCCAGCGUCGUCGCUGGCGCCGGCUGGGCAACAUUCCGAGGGGACCGUCCCCUCGGUAAUGGCGAAUGGGACCCA"
measured_value = 0

[[record]]
sequence_input = "GGCCGGCAUGGUCCCAGCCUCCUCGCUGGCGCCGGCUGGGCAACAUUCCGAGGGGACCGUCCCCUCGGUAAUGGCGAAUGCGAUCCA"
measured_value = 0.141

[[record]]
sequence_input = "GGCCGGCAUGAGCCCAGCCUCCUCGCUGGCGCCGGCUGGGCAACAUUCCGAGGGGACCGUCCCCUCGGUAAUGGCGAAUGGGACCCA"
measured_value = 0.0875

[[record]]
sequence_input = "GGCCGGCAUGGUCCCAGCCUCCUCGAUGGCGCCGGCUGGGCAACAUUCCGAGGGGACCGUCCCCUCGGUAAUGGCGAUUGGGACCCA"
measured_value = 0.269

[[record]]
sequence_input = "GGCCGGCAUGGUCCCAGCCUCCUCGCUGGCGCCGGAUGGGCACCAUUCCGAGGGGACCGUCCCCUCGGUAAUGGCGAAUGGGACCCA"
measured_value = 0.095


Kindly give each listed record's self-cleavage.
1. GGCCGGCAUGGUCCCAGCCUCCUCGCUGGCGCCGGCCGGGCAACAUUCCGAGGGGACAGUCCCCUCGGUAAUGGCGAAUGGGACCCA
2. GGCCGGCAUGUUCCCAGCCUCCUCGCUGGCGCCGGCUGGGCAACAUUCCGAGGGGACCGUCCCCUCGGUAGUGGCGAAUGGGACCCA
3. GGCCGGCAUGGUCCCAGCCUCCUCGCUGGCGCCGGCUGGGCAACAUUCCGAAGGGACCGUCCCCUCGGUAAUGGCGAAUAGGACCCA
4. GGCCGGCAUGGUCCCAGCCUCCUCGCUGGCGCCGGCUGGGCAACAUUCCGAGAGUACCGUCCCCUCGGUAAUGGCGAAUGGGACCCA

[1.22, 0.302, 0.386, 1.17]

Kindly give each listed record's self-cleavage.
1. GGCCGGCAUGCUCCCAGCCUCCUCGCUGGCGCCGGCUGGGCAACAUUCCGAGGGGACCGUCCCCUCGGUAAUCGCGAAUGGGACCCA
2. GGCCGGCAUGGUCCCAGCCUCCUCGCUGGCGCCGGCUGGGCAACAUUCCUAGGGGACCGUCCACUCGGUAAUGGCGAAUGGGACCCA
3. UGCCGGCAUGUUCCCAGCCUCCUCGCUGGCGCCGGCUGGGCAACAUUCCGAGGGGACCGUCCCCUCGGUAAUGGCGAAUGGGACCCA

1. 0.0346
2. 0.57
3. 0.439

Kindly give each listed record's self-cleavage.
1. GGCCGGCAUGGUCCCAGCCUCCUCGCUGGCGCCUGCUGGGCAACAUUCCGAGGGGCCCGUCCCCUCGGUAAUGGCGAAUGGGACCCA
2. GGCCGGCAUGGUCCCAGCCUCCUCGCUGGCGCCGGCUGGGCAACAUCCCGAGGGGACCGUCCCCUCUGUAAUGGCGAAUGGGACCCA
3. GGCCGGCAUGGUCCCAGCCUCCUCGCUGGCGCCGGCUGGGCAACCUUCCGCGGGGACCGUCCCCUCGGUAAUGGCGAAUGGGACCCA
4. GGCCGGCAUGGUCCCAGCCUCCUCGCUGGCGCCGGCUGGGCAACAUUCCGAGGGGACCGUCGCCUCGGUAAUGGCGAAAGGGACCCA
5. GGCCGGCAUGUUCCCAGCCUCCUCGCUGGCGCCGGCUGGGCAACAUUCCGAGGGGACCGUCCCCUCGGUAAUGGCGAAGGGGACCCA
6. GGCCGGCAUGGUACCAGCCUCCUCGCUGGCGCCGGCUGGGCAACAUUCCGAGGGGACCGUCCCCUCGGUAAUUGCGAAUGGGACCCA
7. GGCCGGCAUGGUCCCAGCCUCCUCGCUGGCGACGGCUGGGCAACAUUCCGAGGGGACCGUCCCCUCCGUAAUGGCGAAUGGGACCCA
8. GGCCGGCAUGUUCCCAGCCUCCUCGCUGGAGCCGGCUGGGCAACAUUCCGAGGGGACCGUCCCCUCGGUAAUGGCGAAUGGGACCCA

1: 0.219; 2: 0.892; 3: 0.875; 4: 0.489; 5: 0.231; 6: 0.0615; 7: 0.154; 8: 0.128

Kindly give each listed record's self-cleavage.
1. GGCCGGUAUGGUCCCAGCCUCCUCGCUGGCGCCGGCUGGGCAACAUUCCGAGGGGACCGUCCCCUCGGUAAUGGCGAAGGGGACCCA
2. GGCCGGCAUGGUCCCCGCCUCCUCGCUGGCGCCGGCUGGGCAACAUUCCGAGGGGGCCGUCCCCUCGGUAAUGGCGAAUGGGACCCA
3. GGCCGGCAUGGUCCCAGCCUCCUCGCUGGCGCCGGCUGGGCAACAUUCCGAGGGGACCGUCCACUCGGUAAUGGAGAAUGGGACCCA
4. GGCCGCCAUGGUCCCAGCCUCCUCGCUGGCGCCGGCUGGCCAACAUUCCGAGGGGACCGUCCCCUCGGUAAUGGCGAAUGGGACCCA
5. GGCCGGCAUGGUCCCAGCCUCCUCGCUGGCGCCGGCUGGGCAACAUUCCGAGGGGACCGUUCCCUCGGUAAUGGGGAAUGGGACCCA
6. GGCCGGCAUCGUCCCAGCCUCCUCGCUGGCGCCGGCUGGGCAACAUUCCGAGGGGACCGUACCCUCGGUAAUGGCGAAUGGGACCCA
7. GGCCGGCAUGAUCCCAGCCUCCUCGCUGGCGCAGGCUGGGCAACAUUCCGAGGGGACCGUCCCCUCGGUAAUGGCGAAUGGGACCCA
8. GGCCGGCAUGGUCCCAGCCUACUCGCUGGCGCCGGCUGGGCAACAUUCCGAGGGGACCGUCCCGUCGGUAAUGGCGAAUGGGACCCA

1. 0.434
2. 0.776
3. 0.338
4. 0.175
5. 0.151
6. 0.734
7. 0.151
8. 0.0604

Recorded values, source the RNAGym collection of RNA variant scans (doi:10.7554/elife.80360).
